These data points were gathered from the CombiSolv-Exp solvation set (Vermeire and Green 2021).

- PROTOCOL DETAILS: solvent given as SMILES
- MEASUREMENT PARAMETERS: in OCc1ccco1
MEASUREMENT KIND: solvation free energy, 298 K

INSERT INTO measurements (smiles_code, value_reported) VALUES
  ('c1ccccc1', '-3.89 kcal/mol'),
  ('C1CCCCC1', '-2.94 kcal/mol'),
  ('C1CCCC1', '-2.39 kcal/mol'),
  ('C1CCCCCC1', '-3.74 kcal/mol'),
  ('C=CCCCCC', '-3.1 kcal/mol');

----------
- PROTOCOL DETAILS: solvent given as SMILES
- MEASUREMENT PARAMETERS: in ClCCl
MEASUREMENT KIND: solvation free energy, 298 K (kcal/mol)

INSERT INTO results (molecule, measurement_kind, measurement_unit, value_reported) VALUES
  ('O=C=O', 'solvation free energy, 298 K', 'kcal/mol', -0.68),
  ('c1ccccc1', 'solvation free energy, 298 K', 'kcal/mol', -4.8),
  ('O=O', 'solvation free energy, 298 K', 'kcal/mol', 0.9),
  ('Clc1ccccc1', 'solvation free energy, 298 K', 'kcal/mol', -5.91),
  ('CN(C)C(=O)Nc1ccc(Cl)cc1', 'solvation free energy, 298 K', 'kcal/mol', -13.3),
  ('C=C(C)C1CCC2(CO)CCC3(C)C(CCC4C5(C)CCC(O)C(C)(C)C5CCC43C)C12 (stereo unspecified)', 'solvation free energy, 298 K', 'kcal/mol', -27.7),
  ('C1CCCCC1', 'solvation free energy, 298 K', 'kcal/mol', -4.1),
  ('CCCC(C)C', 'solvation free energy, 298 K', 'kcal/mol', -3.54),
  ('Cc1ccccc1', 'solvation free energy, 298 K', 'kcal/mol', -5.5),
  ('CCCOCCC', 'solvation free energy, 298 K', 'kcal/mol', -5.02),
  ('CC(=O)Nc1ccc(O)cc1', 'solvation free energy, 298 K', 'kcal/mol', -12.8),
  ('CCOCOCC', 'solvation free energy, 298 K', 'kcal/mol', -5.47),
  ('CN(C)C(=O)Nc1ccc(Cl)c(Cl)c1', 'solvation free energy, 298 K', 'kcal/mol', -14.2),
  ('CC(C)CC(C)C', 'solvation free energy, 298 K', 'kcal/mol', -3.96),
  ('II', 'solvation free energy, 298 K', 'kcal/mol', -5.62),
  ('CCCCCCCCCCCCCCCCCCCCCCCC', 'solvation free energy, 298 K', 'kcal/mol', -16);

----------
- PROTOCOL DETAILS: solvent given as SMILES
- MEASUREMENT PARAMETERS: in CCCCCOC(C)=O
MEASUREMENT KIND: solvation free energy, 298 K (kcal/mol)

INSERT INTO assay_data (smiles_code, measurement_unit, value_reported) VALUES
  ('O=C(O)c1cccc(Cl)c1', 'kcal/mol', -10.1),
  ('O=c1c2ccccc2sc2ccccc12', 'kcal/mol', -12.4),
  ('Cc1ccccc1C(=O)O', 'kcal/mol', -8.7),
  ('O=C(O)c1cc([N+](=O)[O-])cc([N+](=O)[O-])c1', 'kcal/mol', -13.7),
  ('O=C1c2ccccc2C(=O)c2c(Cl)cccc21', 'kcal/mol', -13.9),
  ('O=C(O)c1ccc([N+](=O)[O-])cc1', 'kcal/mol', -11.7);

----------
- PROTOCOL DETAILS: solvent given as SMILES
- MEASUREMENT PARAMETERS: in O=C1CCCO1
The following compounds are listed with their measured solvation free energy, 298 K values.
MEASUREMENT KIND: solvation free energy, 298 K (kcal/mol)

INSERT INTO measurements (smiles_code, value_reported) VALUES
  ('C=CCCCCC', -3),
  ('C1CCCCC1', -2.81),
  ('c1ccccc1', -4.16),
  ('C=CCCC', -1.95),
  ('CCCC(C)C', -2.1),
  ('CC(C)CC(C)C', -2.36),
  ('Cc1ccccc1', -4.72);

----------
- PROTOCOL DETAILS: solvent given as SMILES
- MEASUREMENT PARAMETERS: in CCCCOCCCC
The following molecules are listed with their measured solvation free energy, 298 K values.
MEASUREMENT KIND: solvation free energy, 298 K (kcal/mol)

INSERT INTO results (smiles_code, measurement_unit, value_reported) VALUES
  ('c1cc2c3c(cccc3c1)CC2', 'kcal/mol', -9.18),
  ('ClCCCl', 'kcal/mol', -4.16),
  ('CCCC(=O)CCC', 'kcal/mol', -5.6),
  ('Cc1ccccc1', 'kcal/mol', -4.88),
  ('c1ccc2c(c1)-c1cccc3cccc-2c13', 'kcal/mol', -12.1),
  ('O=O', 'kcal/mol', 0.78),
  ('c1ccccc1', 'kcal/mol', -4.11),
  ('CN(C)C(=O)Nc1ccc(Cl)cc1', 'kcal/mol', -11.6),
  ('ClCCl', 'kcal/mol', -3.21),
  ('c1ccc2c(c1)Cc1ccccc1O2', 'kcal/mol', -10.1),
  ('CCCCCCCCCCCCCCCCCCO', 'kcal/mol', -14.5),
  ('CN(C)C(=O)Nc1ccc(Cl)c(Cl)c1', 'kcal/mol', -12.6),
  ('CC(=O)Nc1ccc(O)cc1', 'kcal/mol', -12),
  ('Clc1ccc(Br)cc1', 'kcal/mol', -7.08),
  ('COC(=O)c1ccc(O)cc1', 'kcal/mol', -10.7),
  ('C1CCCCC1', 'kcal/mol', -4.13),
  ('CC(C)CC(C)C', 'kcal/mol', -4.13),
  ('O=c1c2ccccc2sc2ccccc12', 'kcal/mol', -11.7),
  ('CCCCCC(C)=O', 'kcal/mol', -5.73),
  ('ClC(Cl)(Cl)Cl', 'kcal/mol', -4.16),
  ('c1ccc2c(c1)Nc1ccccc1S2', 'kcal/mol', -12.7),
  ('CCCC(C)C', 'kcal/mol', -3.7),
  ('O=C1c2ccccc2C(=O)c2c(Cl)cccc21', 'kcal/mol', -13.1);

----------
- PROTOCOL DETAILS: solvent given as SMILES
- MEASUREMENT PARAMETERS: in Cc1ccccc1C
Quick rule for you: solvation free energy, 298 K at -7 kcal/mol or higher means Criterion met, lower means Criterion not met.

INSERT INTO measurements (smiles_code, category_label) VALUES
  ('CCCCCO', 'Criterion met'),
  ('c1cc2c3c(cccc3c1)CC2', 'Criterion not met'),
  ('Oc1ccc(O)cc1', 'Criterion not met'),
  ('O=C=O', 'Criterion met'),
  ('Clc1ccccc1', 'Criterion met'),
  ('O=c1c2ccccc2sc2ccccc12', 'Criterion not met'),
  ('Nc1ccc(-c2ccc(N)cc2)cc1', 'Criterion not met'),
  ('ClCCCl', 'Criterion met'),
  ('ClC(Cl)(Cl)Cl', 'Criterion met'),
  ('O=O', 'Criterion met'),
  ('FS(F)(F)(F)(F)F', 'Criterion met'),
  ('C=CCC', 'Criterion met'),
  ('ClCCl', 'Criterion met'),
  ('II', 'Criterion met'),
  ('COC', 'Criterion met'),
  ('Cc1ccc(N)cc1', 'Criterion not met'),
  ('Oc1cccc(Cl)c1', 'Criterion not met');

----------
- PROTOCOL DETAILS: solvent given as SMILES
- MEASUREMENT PARAMETERS: in CCO
Parameter class (string): assigned from measured solvation free energy, 298 K. Ranges: low bin (below -10 kcal/mol), mid bin (-10 kcal/mol to below -4 kcal/mol), high bin (-4 kcal/mol or more)

INSERT INTO measurements (molecule, category_label) VALUES
  ('CC(C)(C)Cl', 'high bin'),
  ('O=C(O)c1ccc([N+](=O)[O-])cc1', 'low bin'),
  ('c1ccccc1', 'high bin'),
  ('CC(C)(C)C', 'high bin'),
  ('O=C(O)CCCCCC(=O)O', 'low bin'),
  ('Cc1ccc(C(C)C)c(O)c1', 'low bin'),
  ('CN(C)C', 'high bin'),
  ('CCCO', 'mid bin'),
  ('C=C(C)C1CCC2(CO)CCC3(C)C(CCC4C5(C)CCC(O)C(C)(C)C5CCC43C)C12 (stereo unspecified)', 'low bin'),
  ('S=C=S', 'high bin'),
  ('Cc1ccc(C)cc1', 'mid bin'),
  ('O=[N+]([O-])c1cc(Cl)ccc1Cl', 'mid bin'),
  ('CC(C(=O)O)c1ccc(-c2ccccc2)c(F)c1 (stereo unspecified)', 'low bin'),
  ('C1CCCC1', 'high bin'),
  ('C1CCCCC1', 'high bin'),
  ('O=O', 'high bin'),
  ('c1cc2c3c(cccc3c1)CC2', 'mid bin'),
  ('[2H]O[2H]', 'mid bin'),
  ('CN1C(=O)C(O)N=C(c2ccccc2)c2cc(Cl)ccc21 (stereo unspecified)', 'low bin'),
  ('O=C(Oc1ccccc1)c1ccccc1O', 'low bin'),
  ('CCCCc1ccccc1', 'mid bin'),
  ('CC(=O)Oc1ccccc1C(=O)O', 'low bin'),
  ('O=c1c2ccccc2sc2ccccc12', 'low bin'),
  ('ClCCl', 'high bin'),
  ('CCCC(C)C', 'high bin'),
  ('CCC(C)(C)C(=O)OC1CC(C)C=C2C=CC(C)C(CCC3CC(O)CC(=O)O3)C21 (stereo unspecified)', 'low bin'),
  ('CC(C)CC(C)(C)C', 'high bin'),
  ('c1ccc2c(c1)Cc1ccccc1O2', 'mid bin'),
  ('c1ccc2c(c1)Nc1ccccc1S2', 'low bin'),
  ('O=C(O)CCCCC(=O)O', 'low bin'),
  ('[N-]=[N+]=O', 'high bin'),
  ('O=C=O', 'high bin'),
  ('CNC', 'high bin'),
  ('Cc1ccccc1', 'mid bin'),
  ('O=C(O)c1cc([N+](=O)[O-])cc([N+](=O)[O-])c1', 'low bin');
